# TESTED_SYSTEM: Adrenergic receptor alpha-2 (Rattus norvegicus, UniProt P22086+P19328+P22909)
# ASSAY_TEXT: Alpha-2 adrenergic receptor antagonistic activity in rat vas deferens vs clonidine
# Format: functional, tissue-based
Decide using pA2: a value greater than or equal to 8 is TRUE, a smaller one is FALSE.

Evaluate Cn1c(CC2=NCCN2)cc2ccccc21 : pA2 at minimum 8?
FALSE

Evaluate CN1c2ccccc2CC1CC1=NCCN1 (configuration not stated) : pA2 at minimum 8?
FALSE

Evaluate C=CCN1c2ccccc2CC1C1=NCCN1 (configuration not stated) : pA2 at minimum 8?
TRUE

Consider the additional compound presented here.
Evaluate CCCCN1c2ccccc2CC1C1=NCCN1 (configuration not stated) : pA2 at minimum 8?
TRUE
